We begin with a simple list: items and their reported pIC50.
Target: PD-1/PD-L1 protein/protein interaction (Homo sapiens)
Construct: Recombinant human PD-L1 protein (19-238) with a His-tag at the C-terminus; PD1-H5257 (PD-1)
Assay: PD-1/PD-L1 homogenous time-resolved fluorescence (HTRF) binding assay
Conditions: recombinant human PD-L1 (19-238)-His 10 nM, human PD-1 (25-167)-Fc 3 nM, 25° C., PBS pH 7.4
Protocol: Resolved Fluorescence (HTRF) Binding Assay The assays were conducted in a standard black 384-well polystyrene plate with a final volume of 20 μL. […] Before reading on a PHERAstar FS plate reader (665 nm/620 nm ratio). […] Data obtained for the Example compounds using the PD-1/PD-L1 homogenous time-resolved fluorescence (HTRF) binding assay described in Example A is provided in Table 2.
pIC50: −log10 of the molar value.

Below are worked cases with known answers.
Cc1c(OCCCN2CCC(O)C2)cccc1-c1cccc2c1CCN2C(=O)c1nnc([C@@H]2CCCN2)s1 (stereo partly drawn); ≥ 7.60
Cc1c(NC(=O)c2ccccn2)cccc1-c1cccc2c1CCN2C(=O)c1nc2c(s1)CN(CC(=O)O)CC2; ≥ 7.60
Cc1c(OCCCN2CCC(O)C2)cccc1-c1cccc2c1CCN2C(=O)c1cn2c(n1)CNCC2 (stereo not drawn); ≥ 7.60
O=C(O)CN1CCc2nc(C(=O)N3CCCc4c(-c5ccccc5)cccc43)sc2C1; 7.00 to 7.60
Cc1c(NC(=O)CCN2CCC(O)C2)cccc1-c1cccc2c1CCN2C(=O)c1nc2c(n1C)CNCC2 (stereo not drawn); ≥ 7.60

Proceeding to the next compound to report its pIC50.
Q: Data request, read-out pIC50, for Cc1c(NC(=O)c2nc3c(n2C)CCNC3)cccc1-c1cccc2c1CCN2C(=O)c1nc2c(s1)CN(CC(=O)O)CC2
A: ≥ 7.60

* * *

Collected IC50 values appear next to each entry.
target: PD-1/PD-L1 protein/protein interaction (Homo sapiens, UniProt Q9NZQ7); construct: Recombinant human PD-L1 protein (19-238) with a His-tag at the C-terminus; PD1-H5257 (PD-1); experiment: PD-1/PD-L1 homogenous time-resolved fluorescence (HTRF) binding assay; conditions: recombinant human PD-L1 (19-238)-His 10 nM, human PD-1 (25-167)-Fc 3 nM, 25° C., PBS pH 7.4
Sequence (Q9NZQ7 19-238): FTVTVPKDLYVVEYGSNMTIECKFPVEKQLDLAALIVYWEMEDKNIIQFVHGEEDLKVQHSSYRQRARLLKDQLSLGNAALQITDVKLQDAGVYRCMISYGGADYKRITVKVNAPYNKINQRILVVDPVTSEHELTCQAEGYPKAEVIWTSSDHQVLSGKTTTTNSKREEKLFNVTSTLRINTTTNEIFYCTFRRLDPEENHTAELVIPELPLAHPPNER

Q: What does the data say about its IC50? Entry: Cn1c(C(=O)N2CCCc3c(-c4cccc(OCCN5CCOCC5)c4)cccc32)nc2c1CCN(CC(=O)O)C2
A: ≤ 25 nM

Q: What does the record list as IC50 for CN1CCc2c(-c3cccc4c3CCN4C(=O)c3nc4c(s3)CN(CC(=O)O)CC4)cccc21 ?
A: 25 to 100 nM

Q: If you can, please state the reported IC50 value of CN1CCc2nc(C(=O)N3CCc4c(-c5ccc6c(c5)OCCO6)cccc43)sc2C1 .
A: ≤ 25 nM

Q: What IC50 value was documented for this molecule, Cc1c(Nc2nccc3cc(CN4CCCC[C@H]4C(=O)O)cnc23)cccc1-c1cccc2c1CCN2C(=O)c1nc2c(s1)CNCC2 ?
A: ≤ 25 nM

Q: Any idea what IC50 was measured for O=C(c1cn2c(n1)CNCC2)N1CCc2c(-c3cccc4c3cnn4CCCN3CCOCC3)cccc21 ?
A: 25 to 100 nM

Q: Form field: reported IC50 of Cc1c(NC(=O)CCN2CCC(O)C2)cccc1-c1cccc2c1CCN2C(=O)c1nc2c(s1)CN(CC(=O)O)CC2 (stereo not shown)
A: ≤ 25 nM

Q: IC50 lookup needed for Cc1c(Nc2nccc3nccnc23)cccc1-c1cccc2c1CCN2C(=O)c1nc2c(s1)CN(CC(=O)O)CC2 , thanks.
A: 25 to 100 nM
